molecular target: T1, Recombinant Human PD-L1-TVMV-His (human, UniProt Q9NZQ7 19-239); test: HTRF vs PD-1-Ig; C = IC50 0.0003-0.0099 µM
T1 construct: expressed in HEK293T cells; also called PD-L1-His; hPD-L1(19-239)-TVMV-His
T1 sequence (Q9NZQ7 other isoform, or with tags, fused parts or gaps limits assumed): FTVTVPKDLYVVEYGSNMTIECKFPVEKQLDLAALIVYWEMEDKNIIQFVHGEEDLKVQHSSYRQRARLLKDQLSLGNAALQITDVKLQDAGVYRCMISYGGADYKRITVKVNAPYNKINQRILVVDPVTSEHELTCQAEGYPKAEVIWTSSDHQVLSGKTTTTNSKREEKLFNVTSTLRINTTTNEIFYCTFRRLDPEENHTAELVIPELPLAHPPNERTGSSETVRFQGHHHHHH
pIC50: −log10 of the molar value. Starred links: 1 amine or outer side, 2 acyl side, 3 side chain; linkers in the order of their positions; H or OH if unused. Positions of bridges follow the written chain, without caps; N, C: chain ends. Non-standard residues stand in square brackets, D forms with d. Groups on a side chain read outwards from the residue. Primed or numbered codes have the meaning given here. No end group written: not given here. *: point of attachment. PEG11′ = PEG11 spacer (eleven ethylene glycol units, 3,6,...,33-undecaoxa) between the triazole and gamma-Glu-C18 diacid; Pra″ = its azide, alkyne or alkene has reacted where a group follows in round brackets; triazole = 1,2,3-triazole formed by click of the Pra alkyne with the azide; Trp(1-CH2CO) = O=C([C@H](Cc1cn(CC(=O)[*:3])c2ccccc12)N[*:1])[*:2]; C18 diacid = O=C(O)CCCCCCCCCCCCCCCCC(=O)*; γGlu = O=C(O)[C@H](CCC(=O)[*:2])N[*:1]; Hyp = O=C(O)[C@@H]1C[C@@H](O)CN1; NMeNle = CCCC[C@H](NC)C(=O)O; NMeA = CN[C@@H](C)C(=O)O; Pra = C#CC[C@H](N)C(=O)O
quantity: pIC50

binder	measurement
FXDPXLPWXWXXLCGE (ClAc-Tyr(4-F)-Pip-Asp-Pro-Dap-Leu-Hyp-Trp-Dab-Trp'-mNle-mNle-Leu-Cys-Gly-((S)-4-(Fmoc-amino)-5-(tert-butoxy)-5-oxopentanoic acid)-[Modified resin 14A], deprotected; Glu joined through its gamma-carboxyl; 14A = ethylenediamine amide of the gamma-carboxyl of Glu N-(17-carboxyheptadecanoyl); cyclised ClAc-Cys) [Example 14123]	8.00 to 9.52

*Q* Look at this binder and give its reported pIC50. {CH2CO}-Y[NMeA]DPHK[Hyp]WK[Trp(1-CH2CO)][NMeNle][NMeNle]ECG[Pra″]([triazole-PEG11′-γGlu-C18 diacid]) (thioether N-14) [Example 14092]
*A* 8.00 to 9.52

*Q* Look at this binder and give its reported pIC50. {CH2CO}-Y[NMeA]DPHQ[Hyp]WSW[NMeNle][NMeNle]ECG[Pra]G (thioether N-14; not fully specified (C-terminus); printed as ClAc-Tyr-mAla-Asp-Pro-His-Gln-Hyp-Trp-Ser-Trp-mNle-mNle-Glu-Cys-Gly-[(S)-propargylglycine]-Gly, also called Intermediate 1400C) [INT-1400C]
*A* 8.00 to 9.52

*Q* Look at this binder and give its reported pIC50. {CH2CO}-Y[NMeA]DPHK[Hyp]WKW[NMeNle][NMeNle]ECG[Pra]D (thioether N-14; not fully specified (C-terminus); printed as ClAc-Tyr-mAla-Asp-Pro-His-Lys-Hyp-Trp-Lys-Trp-mNle-mNle-Glu-Cys-Gly-[(S)-propargylglycine]-Asp, also called Intermediate 1400B) [INT-1400B]
*A* 8.00 to 9.52
